The values you see were collected from PubChem BioAssay (NCATS).

Biological target: Lysosomal acid glucosylceramidase (Homo sapiens) (UniProt P04062)
Sequence (P04062 whole entry, looked up): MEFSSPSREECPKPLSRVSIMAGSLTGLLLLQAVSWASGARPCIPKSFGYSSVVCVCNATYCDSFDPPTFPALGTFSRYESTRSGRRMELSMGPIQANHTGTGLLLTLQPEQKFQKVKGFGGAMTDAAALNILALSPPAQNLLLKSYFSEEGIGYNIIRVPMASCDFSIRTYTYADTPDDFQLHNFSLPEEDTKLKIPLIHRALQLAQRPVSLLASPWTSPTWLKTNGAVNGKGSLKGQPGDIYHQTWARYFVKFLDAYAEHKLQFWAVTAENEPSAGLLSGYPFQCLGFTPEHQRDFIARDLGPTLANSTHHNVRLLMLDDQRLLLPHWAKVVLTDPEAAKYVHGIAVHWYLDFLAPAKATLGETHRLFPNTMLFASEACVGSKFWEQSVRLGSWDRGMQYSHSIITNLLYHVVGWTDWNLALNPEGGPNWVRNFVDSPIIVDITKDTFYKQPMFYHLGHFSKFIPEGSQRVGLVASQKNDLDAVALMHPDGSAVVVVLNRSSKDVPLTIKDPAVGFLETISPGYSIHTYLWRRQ
Test: Glucocerebrosidase-p2 (AID 348); also: potency is read from the fitted curve at half-maximal effect
Conditions: purified GBA, blue fluorogenic substrate, 40 min
Text: Beta-glucocerebrosidase catalyzes the hydrolysis of beta-glucocerebroside to glucose and ceramide. The inherited deficiency of beta-glucocerebrosidase results in Gaucher disease, which is characterized by a wide variety of symptoms including hepatosplenomegaly, anemia, thrombocytopenia, bony lesions and bone marrow infiltration with characteristic storage cells, known as Gaucher cells. […] Blue fluorescence substrate assay: […] Read the plate in Viewlux plate reader (Ex=365(10) and Em=440(10)).
Activity calls are given as the source filed them. Rule as the data show it: active = potency below about 10 µM; inactive = the rest.
recorded.endpoint: Potency

>>> val("N#CCCn1c(=O)c(-c2ccc(Cl)cc2)nc2cnc(Oc3cccc(Cl)c3)nc21")
"> 11.4 µM (inactive)"
>>> val("O=C(c1ccco1)N1CCC2(CCCN(Cc3ccncc3)C2)CC1")
"> 11.4 µM (inactive)"
>>> val("COc1ccccc1-c1nc(NCc2cccnc2)c2ccccc2n1")
"> 11.4 µM (inactive)"
>>> val("Cc1cccc(CNc2ncnc3ccc(-c4ccccc4C#N)cc23)c1")
"> 11.4 µM (inactive)"
>>> val("COc1ccc(CNc2ncncc2-c2cccc(C#N)c2)c(OC)c1")
"> 11.4 µM (inactive)"
>>> val("COCC(=O)N1CCC2(CC1)CCN(c1ncccn1)CC2")
"> 11.4 µM (inactive)"

For each of the molecules below, note its Potency.
1. COCCn1c(=O)c(-c2ccc(Cl)cc2)nc2cncnc21
2. COCC(=O)N1CCC2(CCCN(Cc3nccs3)C2)CC1

["> 11.4 µM (inactive)", "> 11.4 µM (inactive)"]

For each of the molecules below, note its Potency.
1. CN(C)C(=O)c1ccc(-c2cc(NCc3cccs3)ncn2)cc1
2. Cn1cccc1C(=O)N1CCC2(CC1)CN(c1cccc(-c3ccccc3)c1)C2
3. CCNc1ncc2nc(-c3ccc(Cl)cc3)c(=O)n(Cc3cccs3)c2n1

1: > 11.4 µM (inactive); 2: > 11.4 µM (inactive); 3: > 11.4 µM (inactive)

---

Test: qHTS Assay for Lipid Storage Modulators (AID 1519); also: % is scaled to controls: 0 for no effect and ±100 for the full control effect
Details: Drosophila S3 cells, BODIPY lipid droplet/cell ratio, laser cytometry; at 57.5 µM (top of the series); cells loaded with oleic acid
Experimental: NIH Molecular Libraries Probe Production Centers Network [MLPCN] NIH Chemical Genomics Center [NCGC] Assay Submitter (PI): Beller, Mathias; Max-Planck-Institut fur Biophysikalische Chemie […] We dispensed 4 uL of cells at 1.25 x 10^6 cells/mL into LoBase Aurora COC 1,536-well plates (black walled, clear bottom) with a bottle-valve solenoid-based dispenser (Aurora) to obtain 5,000 cells/well. […] The ratio of the total intensity in PMT channel 1 over total intensity of channel 3 was also calculated. […]
Results filed as inconclusive are left out.
recorded.endpoint: activity change, negative = inhibition (%)
One number for each entry, in %.

For each of the compounds below, note its activity change, negative = inhibition.
1. CS(=O)(=O)Nc1cccc(-c2nc(NCCN3CCOCC3)c3ccccc3n2)c1
2. c1nc(NCCN2CCOCC2)c2cc(-c3ccc4c(c3)OCO4)ccc2n1
3. CN1CCN(c2ncc3nc(-c4cccs4)c(=O)n(Cc4cccs4)c3n2)CC1
4. CC(=O)N1CCC[C@@]2(CCN(C(c3ccccc3)c3ccccc3)C2)C1

1. 9.69
2. 10.6
3. -5.19
4. -4.88

For each of the compounds below, note its activity change, negative = inhibition.
1. COc1ccccc1CN1CCC2(CC1)CCN(C(=O)c1cccn1C)CC2
2. Cc1ccccc1-c1cc(-n2ccnc2)ncn1

-1.94
9.66

For each of the compounds below, note its activity change, negative = inhibition.
1. Cn1cccc1C(=O)N1CCC2(CCN(C(=O)Nc3cccc(C#N)c3)CC2)CC1
2. CCN1CCC[C@@H]1CNC(=O)c1cc(S(N)(=O)=O)ccc1OC

1. 4.21
2. 3.26
